# System: Candida albicans
# TEST_DESCRIPTION: Antifungal activity against Candida albicans after 48 hrs by broth dilution technique
# Type: functional
I'd appreciate it if you could supply MIC values for the items below.
One number for each entry, in µg/mL.

Take a look at these entries with their results.
# STRUCTURE_AS_SMILES, MIC (µg/mL)
measured = [
    ("CCCCCCCC/C=C\\CCCCCCCC(=O)N(C(=O)NC1CCCCC1)C1CCCCC1", 50),
    ("CCCCCC[C@@H](O)C/C=C\\CCCCCCCC(=O)Nc1ccccc1O", 25),
    ("CCCCCCCCCCCCCCCCCC(=O)N(C(=O)NC1CCCCC1)C1CCCCC1", 25),
    ("C=CCCCCCCCCC(=O)Nc1ccccc1O", 50),
    ("CCCCC/C=C\\CC[C@H](O)CCCCCCCC(=O)Nc1ccccc1O", 12.5),
]

Moving on to the next compound.
# returns recorded MIC (system: Candida albicans) for `CCCCCC[C@@H](O)C/C=C\CCCCCCCC(=O)N(C(=O)NC1CCCCC1)C1CCCCC1`
25
